Biological target: T1, Murine APRIL (mouse, UniProt Q9D777 105-241, limits assumed)
T1 sequence (looked up): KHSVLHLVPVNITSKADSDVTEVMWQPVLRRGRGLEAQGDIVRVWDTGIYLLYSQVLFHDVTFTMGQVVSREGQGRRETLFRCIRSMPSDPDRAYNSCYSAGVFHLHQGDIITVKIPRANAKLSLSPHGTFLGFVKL
Assay: NNS library, phage display;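 also: ligand versus display occurrence-to-degeneracy ratio and higher means enriched by binding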
Hi there, I'd appreciate the recorded F' APRIL for every entry that follows.
Lab note: record just the number, no unit beside it.

Note to self: F' APRIL recorded for SLSCRKEQGKFYDHLLGDCISCASICGQHPKQCAYFCENKLR (receptor, phage library variant, format as m9) [TACI_d2 R84G] was 1

SLSCRKEQGKFYDHLLRDCISCASYCGQHPKQCAYFCENKLR (receptor, phage library variant, format as m9) [TACI_d2 I92Y] has a reported F' APRIL of 0

Short answer for SLSCRKEQGKFYDHLLKDCISCASICGQHPKQCAYFCENKLR (receptor, phage library variant, format as m9) [TACI_d2 R84K] : F' APRIL was 0

For this binder ( SLSCRKEQGKFYDHLLRDCISCASMCGQHPKQCAYFCENKLR (receptor, phage library variant, format as m9) [TACI_d2 I92M] ), measured F' APRIL is 0

The measured F' APRIL associated with SLSCRKEQGKFYDHLLRDCISCASECGQHPKQCAYFCENKLR (receptor, phage library variant, format as m9) [TACI_d2 I92E] reads 0

For record SLSCRKEQGKMYDHLLRDCISCASICGQHPKQCAYFCENKLR (receptor, phage library variant, format as m9) [TACI_d2 F78M] the listed F' APRIL is 0

FYI, the data here is from patent US20080181886A1.
